- Test system: MALME-3M melanoma
- measurement_description: NCI tumour cell line growth inhibition, 48 h
Answer each item with its documented TGI.

Example cases with answers are listed next.
Query :: // returns reported TGI for input COc1cc(O)c2c(=O)cc(C3(OC(C)=O)C=CC(OC4OC(CO)C(O)C(O)C4O)C=C3)oc2c1 (stereo not drawn)
Result :: > 100 µM

Query :: // returns reported TGI for input `N#Cc1c(-c2ccccc2)cc(Nc2ccc(F)cc2)n2c1nc1ccccc12`
Result :: > 28.4 µM

Here's the next entry for you.
Query :: // returns reported TGI for input `Cc1cc2c(C)nn(Cc3ccc(Cl)cc3Cl)c2c(C#N)c1C`
Result :: > 100 µM
